// reported melting point for each item listed

Some compounds with recorded melting point:
1) CC(C)C(N)C(O)COc1ccccc1C1=NNC(=O)CC1 (stereo not given): 124 to 126 °C
2) Clc1nc(-c2ccccc2)no1: 40 to 42 °C

Check the records and state melting point for CCC(=O)Nc1cccc2c1C(=O)N(C1CCC(=O)NC1=O)C2=O (stereo not given)
221 to 223 °C

Check the records and state melting point for `CC1=Nc2ccc(S(N)(=O)=O)cc2S(=O)(=O)N1`
295 to 297 °C

Check the records and state melting point for FC(F)(F)c1ccc(CN2CC3(COc4cc5c(cc43)CCO5)c3c(-c4cncnc4)cccc32)o1 (stereo not given)
263 to 266 °C

Where do these numbers come from? They come from a melting point compilation (Tetko et al.; mined from patent text by program, amines drawn as free bases though some values may be those of a salt).
